# measurementNotes: DRUGMATRIX: Phosphodiesterase PDE3 enzyme inhibition (substrate: [3H]cAMP + cAMP)
# Assay type: tissue-based, Homo sapiens
# conditionDetails: platelet; Not Active = under 50% inhibition at 10 µM
endpointName: Ki

O=c1cnn([C@@H]2O[C@H](CO)[C@@H](O)[C@H]2O)c(=O)[nH]1 ... Not Active
COc1ccc2cc3[n+](cc2c1OC)CCc1cc2c(cc1-3)OCO2.[Cl-] [BERBERINE CHLORIDE] ... Not Active
NCCCC(O)(P(=O)(O)O)P(=O)(O)O ... Not Active
Nc1ccn([C@@H]2O[C@H](CO)[C@@H](O)[C@@H]2O)c(=O)n1 ... Not Active

# Ki lookup, item CCCCNc1ccc(C(=O)OCCN(C)C)cc1
Not Active

# Ki lookup, item CCCNCC(O)COc1ccccc1C(=O)CCc1ccccc1 (stereo unspecified)
Not Active

# Ki lookup, item CC(C(=O)O)c1ccc2oc(-c3ccc(Cl)cc3)nc2c1 (stereo unspecified)
Not Active

Where do the numbers come from? From ChEMBL document CHEMBL1909046.
